Tested on: E. coli transcribing antisense RNA to rplL and rplJ (AS-rplL/J)
Assay protocol: microbe, parasite or virus in culture
Assay type: cell-based
Protocol conditions: IC50 without IPTG versus IC50 with 400 μM IPTG
Assay endpoint: Fold Increase in Sensitivity (Fold)
The response must be a number in Fold with no trailing unit.

The cases that follow already have their Fold Increase in Sensitivity on record.
Find the recorded Fold Increase in Sensitivity belonging to `O=C(N[C@H](CO)[C@H](O)c1ccc([N+](=O)[O-])cc1)C(Cl)Cl` and report it.
307

Moving on to the next compound: `C[C@H]1c2cccc(O)c2C(=O)C2=C(O)[C@]3(O)C(=O)C(C(N)=O)=C(O)[C@@H](N(C)C)[C@@H]3[C@@H](O)[C@@H]21`
15

Could you now look at the following compound, please?
Find the recorded Fold Increase in Sensitivity belonging to `CN[C@H](CC(C)C)C(=O)N[C@H]1C(=O)N[C@@H](CC(N)=O)C(=O)N[C@H]2C(=O)N[C@H]3C(=O)N[C@H](C(=O)N[C@H](C(=O)O)c4cc(O)cc(O)c4-c4cc3ccc4O)[C@H](O)c3ccc(c(Cl)c3)Oc3cc2cc(c3O[C@@H]2O[C@H](CO)[C@@H](O)[C@H](O)[C@H]2O[C@H]2C[C@](C)(N)[C@H](O)[C@H](C)O2)Oc2ccc(cc2Cl)[C@H]1O` and report it.
2
